# Test system: PHF6
# TEST: 3' UTR reporter interaction score (median-centred robust z-score of log2 firefly/Renilla activity); higher = less repression of the 3' UTR reporter
# CONDITION_SET: HEK293T; 48 h
READOUT_TYPE: 3' UTR reporter interaction score
Numbers only.

POLYMER_SEQUENCE	TESTED_SYSTEM	3' UTR reporter interaction score
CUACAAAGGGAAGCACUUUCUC	PHF6	0.716
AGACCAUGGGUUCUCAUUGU	PHF6	1.61
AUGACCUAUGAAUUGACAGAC	PHF6	-2.93
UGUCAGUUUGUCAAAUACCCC	PHF6	-0.327
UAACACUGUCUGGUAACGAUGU	PHF6	1.8

For each listed entry, give its 3' UTR reporter interaction score.
1. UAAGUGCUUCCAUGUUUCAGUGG
2. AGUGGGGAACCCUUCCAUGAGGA
3. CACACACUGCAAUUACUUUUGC
4. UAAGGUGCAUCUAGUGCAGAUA
5. AGCUGGUGUUGUGAAUC
6. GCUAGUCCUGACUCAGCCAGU
7. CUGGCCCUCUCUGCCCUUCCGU

0.57
0.14
-0.242
-0.951
-0.508
-0.0579
-2.64

Batch: 3' UTR reporter interaction score for all items listed.
1. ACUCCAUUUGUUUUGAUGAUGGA
2. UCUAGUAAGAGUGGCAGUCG
3. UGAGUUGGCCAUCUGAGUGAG

1: 0.594; 2: 0.233; 3: 2.42

Could you tell me 3' UTR reporter interaction score for each of these sequences? They are listed below.
1. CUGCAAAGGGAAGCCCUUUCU
2. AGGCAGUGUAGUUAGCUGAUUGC

1. -2.67
2. -2.27

Working through the 8 sequences below one at a time, give 3' UTR reporter interaction score for each.
1. GGUCCAGAGGGGAGAUAGG
2. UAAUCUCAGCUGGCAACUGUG
3. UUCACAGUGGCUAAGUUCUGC
4. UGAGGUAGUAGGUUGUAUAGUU
5. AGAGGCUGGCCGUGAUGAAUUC
6. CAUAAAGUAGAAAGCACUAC
7. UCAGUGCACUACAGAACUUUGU
8. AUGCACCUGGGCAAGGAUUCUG

1: 0.39; 2: 0.579; 3: 0.752; 4: 2.23; 5: 2.37; 6: -0.673; 7: 0.792; 8: -1.61

----------
Would you mind telling me the reported 3' UTR reporter interaction score of each entry?
# Test system: MYCN
# TEST: 3' UTR reporter interaction score (median-centred robust z-score of log2 firefly/Renilla activity); higher = less repression of the 3' UTR reporter
# CONDITION_SET: HEK293T; 48 h

Recorded results for 4 sequences are shown here.
POLYMER_SEQUENCE	READOUT_TYPE	VALUE_REPORTED
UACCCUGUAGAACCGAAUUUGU	3' UTR reporter interaction score	-0.116
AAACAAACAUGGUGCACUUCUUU	3' UTR reporter interaction score	0.437
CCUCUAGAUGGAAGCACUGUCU	3' UTR reporter interaction score	-0.452
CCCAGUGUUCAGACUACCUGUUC	3' UTR reporter interaction score	0.198

For every item in the list below, what is its measured 3' UTR reporter interaction score?
1. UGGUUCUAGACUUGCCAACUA
2. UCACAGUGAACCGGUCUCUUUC
3. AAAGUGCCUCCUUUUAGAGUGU
4. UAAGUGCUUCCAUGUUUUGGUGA
5. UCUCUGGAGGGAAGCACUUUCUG

[0.807, 0.302, 1.27, 0.317, -0.393]

Give measured 3' UTR reporter interaction score for every item shown.
1. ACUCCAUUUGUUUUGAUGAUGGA
2. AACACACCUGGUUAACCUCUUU
3. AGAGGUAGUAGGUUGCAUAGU

[0.165, 1.21, -3.2]

Give one value of 3' UTR reporter interaction score per listed sequence.
1. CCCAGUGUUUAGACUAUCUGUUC
2. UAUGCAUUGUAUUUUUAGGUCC
3. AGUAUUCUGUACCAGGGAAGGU
4. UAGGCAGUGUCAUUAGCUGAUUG
5. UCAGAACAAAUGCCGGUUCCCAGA

0.905
-0.281
0.786
-3.63
0.0784

I have 4 sequences here; please give me 3' UTR reporter interaction score for each one.
1. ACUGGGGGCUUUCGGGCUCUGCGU
2. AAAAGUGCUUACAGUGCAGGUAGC
3. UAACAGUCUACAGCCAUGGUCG
4. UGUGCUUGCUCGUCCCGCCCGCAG

1: -0.18; 2: -0.211; 3: 0.783; 4: -0.114
